Target: human JAK1 (Homo sapiens)
Construct: catalytic domain, amino acids 866-1154; catalog number PV4774
Sequence (P23458 866-1154): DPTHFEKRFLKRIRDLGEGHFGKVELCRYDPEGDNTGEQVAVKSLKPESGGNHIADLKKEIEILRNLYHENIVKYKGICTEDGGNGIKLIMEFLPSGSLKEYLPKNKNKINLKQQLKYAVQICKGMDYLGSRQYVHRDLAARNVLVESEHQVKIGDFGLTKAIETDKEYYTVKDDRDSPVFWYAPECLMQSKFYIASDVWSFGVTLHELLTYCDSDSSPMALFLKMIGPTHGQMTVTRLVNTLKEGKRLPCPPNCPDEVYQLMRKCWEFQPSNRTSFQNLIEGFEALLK
Experiment: JAK1 inhibition assay (polyGT substrate / Ulight-JAK1 peptide)
Settings: recombinant human JAK1 catalytic domain; polyGT or Ulight-JAK1 peptide assay
pIC50: −log10 of the molar value.
quantity kind: pIC50

{"compound": "CCc1cc(C2CN(C(=O)CCC(F)(F)F)C2)ncc1N(C)c1cc2c(cn1)ncn2C", "target under test": "human JAK1 (Homo sapiens)", "reported measurement": "6.00 to 6.30"}
{"compound": "CN(c1cc2c(cn1)ncn2C)c1ccc(C2CCN(C(=O)OC(C)(C)C)CC2)cc1OC(F)F", "target under test": "human JAK1 (Homo sapiens)", "reported measurement": "6.30 to 7.00"}
{"compound": "CCc1cc(CN(C)S(C)(=O)=O)ccc1N(C)c1cc2c(cn1)ncn2C", "target under test": "human JAK1 (Homo sapiens)", "reported measurement": "7.00 to 11.00"}
{"compound": "CCc1cc(CO)ccc1N(C)c1cc2c(cn1)ncn2C", "target under test": "human JAK1 (Homo sapiens)", "reported measurement": "7.00 to 11.00"}
{"compound": "CCc1cc(C(=O)NC)ccc1N(C)c1cc2c(cn1)ncn2C", "target under test": "human JAK1 (Homo sapiens)", "reported measurement": "7.00 to 11.00"}
{"compound": "CCc1cc(C(C#N)N2CC(C)(C)C2)ccc1N(C)c1cc2c(cn1)ncn2C (stereo not shown)", "target under test": "human JAK1 (Homo sapiens)", "reported measurement": "7.00 to 11.00"}
{"compound": "CCc1ncncc1N(C)c1cc2c(cn1)ncn2C", "target under test": "human JAK1 (Homo sapiens)", "reported measurement": "< 6.00"}
{"compound": "CCc1cc(C2=CCN(C(=O)OC(C)(C)C)CC2)ccc1N(C)c1cc2c(cn1)ncn2C", "target under test": "human JAK1 (Homo sapiens)", "reported measurement": "7.00 to 11.00"}
{"compound": "CCNC(=O)c1ccc(N(C)c2cc3c(cn2)ncn3C)c(CC)c1", "target under test": "human JAK1 (Homo sapiens)", "reported measurement": "7.00 to 11.00"}
{"compound": "CCc1cc(-c2noc(COC)n2)ccc1N(C)c1cc2c(cn1)ncn2C", "target under test": "human JAK1 (Homo sapiens)", "reported measurement": "7.00 to 11.00"}
{"compound": "CCc1cc(-c2cncs2)ccc1N(C)c1cc2c(cn1)ncn2C", "target under test": "human JAK1 (Homo sapiens)", "reported measurement": "7.00 to 11.00"}
{"compound": "Cc1c(OCC(=O)N(C)C)cccc1N(C)c1cc2c(cn1)ncn2C", "target under test": "human JAK1 (Homo sapiens)", "reported measurement": "< 6.00"}
{"compound": "CCc1cc(C2CN(S(=O)(=O)CC(F)(F)F)C2)ccc1N(C)c1cc2c(cn1)ncn2C", "target under test": "human JAK1 (Homo sapiens)", "reported measurement": "7.00 to 11.00"}
{"compound": "CN(c1cc2c(cn1)ncn2C)c1ccc(C2CN(CC(N)=O)C2)cc1OC(F)F", "target under test": "human JAK1 (Homo sapiens)", "reported measurement": "6.30 to 7.00"}
{"compound": "CCc1cc(CNC(=O)C2CCC(F)(F)CC2)ccc1N(C)c1cc2c(cn1)ncn2C", "target under test": "human JAK1 (Homo sapiens)", "reported measurement": "7.00 to 11.00"}
{"compound": "CCc1cc(-c2cnn(CC(=O)C(C)(C)C)c2)ccc1N(C)c1cc2c(cn1)ncn2C", "target under test": "human JAK1 (Homo sapiens)", "reported measurement": "7.00 to 11.00"}
{"compound": "CCc1ccncc1N(C)c1cc2c(cn1)ncn2C", "target under test": "human JAK1 (Homo sapiens)", "reported measurement": "6.30 to 7.00"}
{"compound": "CCc1cc(C(C#N)N2CC(NC(=O)OC(C)(C)C)C2)ccc1N(C)c1cc2c(cn1)ncn2C (stereo not shown)", "target under test": "human JAK1 (Homo sapiens)", "reported measurement": "7.00 to 11.00"}
{"compound": "CCc1cc(-c2cnn(CC#N)c2)ccc1N(C)c1cc2c(cn1)ncn2C", "target under test": "human JAK1 (Homo sapiens)", "reported measurement": "7.00 to 11.00"}
{"compound": "COc1cc(-c2c(C)nn(C)c2C)ncc1N(C)c1cc2c(cn1)ncn2C", "target under test": "human JAK1 (Homo sapiens)", "reported measurement": "< 6.00"}
{"compound": "CCc1cc(CN(C)S(C)(=O)=O)ncc1N(C)c1cc2c(cn1)ncn2C", "target under test": "human JAK1 (Homo sapiens)", "reported measurement": "7.00 to 11.00"}
{"compound": "CCc1cc(-c2ccsc2)ncc1N(C)c1cc2c(cn1)ncn2C", "target under test": "human JAK1 (Homo sapiens)", "reported measurement": "7.00 to 11.00"}
{"compound": "CN(c1ccc(OCCO)cc1)c1cc2c(cn1)ncn2C", "target under test": "human JAK1 (Homo sapiens)", "reported measurement": "6.30 to 7.00"}
{"compound": "CN(c1ccc(OC(F)(F)F)cc1)c1cc2c(cn1)ncn2C", "target under test": "human JAK1 (Homo sapiens)", "reported measurement": "6.30 to 7.00"}
{"compound": "COc1ccc(N(C)c2cc3c(cn2)ncn3C)cc1", "target under test": "human JAK1 (Homo sapiens)", "reported measurement": "6.30 to 7.00"}
{"compound": "CC(NC(=O)OC(C)(C)C)c1ccc(N(C)c2cc3c(cn2)ncn3C)c(F)c1 (stereo not shown)", "target under test": "human JAK1 (Homo sapiens)", "reported measurement": "< 6.00"}
{"compound": "CCc1cc(CNC2COC2)ccc1N(C)c1cc2c(cn1)ncn2C", "target under test": "human JAK1 (Homo sapiens)", "reported measurement": "7.00 to 11.00"}
{"compound": "CCc1ccccc1N(CC)c1cc2c(cn1)ncn2C", "target under test": "human JAK1 (Homo sapiens)", "reported measurement": "7.00 to 11.00"}
{"compound": "CCc1cc(CNC2CCS(=O)(=O)C2)ccc1N(C)c1cc2c(cn1)ncn2C (stereo not shown)", "target under test": "human JAK1 (Homo sapiens)", "reported measurement": "7.00 to 11.00"}
{"compound": "Cc1ccccc1N(C)c1cc2c(cn1)ncn2C", "target under test": "human JAK1 (Homo sapiens)", "reported measurement": "6.30 to 7.00"}
{"compound": "Cc1cc(C(=O)O)ccc1N(C)c1cc2c(cn1)ncn2C", "target under test": "human JAK1 (Homo sapiens)", "reported measurement": "< 6.00"}
{"compound": "Cc1c(OCCN2CCCC2)cccc1N(C)c1cc2c(cn1)ncn2C", "target under test": "human JAK1 (Homo sapiens)", "reported measurement": "< 6.00"}
{"compound": "CCc1cc(CNCC(C)(C)O)ccc1N(C)c1cc2c(cn1)ncn2C", "target under test": "human JAK1 (Homo sapiens)", "reported measurement": "7.00 to 11.00"}
{"compound": "CCc1cc(CNC(=O)NC)ccc1N(C)c1cc2c(cn1)ncn2C", "target under test": "human JAK1 (Homo sapiens)", "reported measurement": "6.30 to 7.00"}
{"compound": "COc1cc(N2CCOCC2)ncc1N(C)c1cc2c(cn1)ncn2C", "target under test": "human JAK1 (Homo sapiens)", "reported measurement": "7.00 to 11.00"}
{"compound": "CN(c1cc2c(cn1)ncn2C)c1ccc(C2CN(C(=O)OC(C)(C)C)C2)cc1OC(F)F", "target under test": "human JAK1 (Homo sapiens)", "reported measurement": "6.00 to 6.30"}
{"compound": "CCc1ccccc1N(C)c1cc2c(cn1)ncn2C1CC1", "target under test": "human JAK1 (Homo sapiens)", "reported measurement": "6.00 to 6.30"}
